Solubility reference
# test: Solubility of base dye in polystyrene
# Format: physicochemical
# cond: base dye measured to be soluble in polystyrene

molecule | Solubility
c1ccc2ccccc2c1 [Naphthalene] | >1000 mM
Cc1cccc2ccccc12 [1-Methyl Naphthalene] | >1000 mM
Cc1ccc(C)cc1 [p-Xylene] | >1000 mM
Cc1ccc2ccccc2c1 [2-Methyl Naphthalene] | >1000 mM
c1ccc(-c2cnc(-c3ccccc3)o2)cc1 [2,5 Diphenyloxazole] | >1500 mM
Cc1ccc(C)c(C)c1 [pseudocumene] | >1000 mM

All figures here come from patent US20160154122A1.
